system-tested: N-formyl peptide receptor 2 (Homo sapiens) (UniProt P25090)
measurement-protocol: Agonist activity at human FPR2 expressed in RBL-2H3 cells assessed as induction of calcium mobilization
Type: functional, cell-based
Activity calls are given as the source filed them. The rule behind the calls is not given here.
Allowed answers: YES for active, NO for inactive

smiles_code=Cc1cccc2[nH]c(SCC(=O)Nc3ccc(Cl)c([N+](=O)[O-])c3)nc12 classification=NO
smiles_code=COc1ccc2[nH]c(SCC(=O)Nc3ccc(Cl)cc3)nc2c1 classification=YES
smiles_code=O=C(CN1CCN(c2ccccc2)CC1)Nc1ccc(F)c(Cl)c1 classification=NO

Prompt: Query: recorded result category for `CSc1ccc(NC(=O)Nc2c(C)n(C)n(-c3ccccc3)c2=O)cc1` in this test
Response: YES

====

system-tested: N-formyl peptide receptor 2 (Homo sapiens)
Sequence (whole entry): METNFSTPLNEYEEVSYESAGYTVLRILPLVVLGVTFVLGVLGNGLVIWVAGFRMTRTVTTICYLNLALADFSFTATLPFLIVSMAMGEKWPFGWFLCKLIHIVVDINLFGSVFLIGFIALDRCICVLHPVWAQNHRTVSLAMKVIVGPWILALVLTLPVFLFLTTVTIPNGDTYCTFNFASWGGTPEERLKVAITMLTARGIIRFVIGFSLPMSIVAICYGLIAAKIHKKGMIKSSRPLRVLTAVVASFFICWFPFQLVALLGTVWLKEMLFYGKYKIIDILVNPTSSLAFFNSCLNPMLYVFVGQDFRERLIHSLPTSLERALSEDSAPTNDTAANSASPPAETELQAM
measurement-protocol: Agonist activity at human FPR2 expressed in RBL-2H3 cells assessed as induction of calcium mobilization
Assay type: functional, cell-based
Calls of active or inactive are those of the source. How the calls were made is not given here.
Mark one answer only. Choices: 1.0 = active, 0.0 = inactive

molecule=COc1ccc(CCNC(=O)Nc2ccc(Cl)cc2Cl)cc1 classification=0.0
molecule=O=C(CSc1nc2ccccc2[nH]1)Nc1cccc(Br)c1 classification=0.0
molecule="CCOc1ccc(C(=O)NN2C(=O)c3ccccc3NC2c2ccc(OC)cc2)cc1 (stereo not given)" classification=1.0
molecule=Cc1ccc(Cl)cc1N1CCN(CC(=O)Nc2ccc(Br)cc2)CC1 classification=1.0

Prompt: Would you mind telling me which call this test gave `COc1cccc(N2CCN(CC(=O)Nc3ccc(Br)cc3)CC2)c1` ?
Response: 1.0

====

system-tested: N-formyl peptide receptor 2 (Homo sapiens) (UniProt P25090)
measurement-protocol: Agonist activity at human FPR2 expressed in RBL-2H3 cells assessed as induction of calcium mobilization
Assay type: functional, cell-based
Calls of active or inactive are those of the source. The rule behind the calls is not given here.
API: response.call in active, inactive

Known results for compounds:
smiles_code=Cc1ccc(CCNC(=O)Nc2ccc(F)cc2)cc1 classification=inactive
smiles_code=O=C(N/N=C/c1ccc(-c2cccc(C(F)(F)F)c2)o1)c1ccc(F)cc1 classification=active
smiles_code=COc1ccc(NC(=O)Nc2ccc(C(=O)N3CCCCC3)cc2)cc1 classification=active

Below: the item to evaluate.
Prompt: Dear colleague, could you share the recorded outcome for `COc1ccccc1/C=C/C=N/NC(=O)Cc1cccs1` when you have a moment?
Response: inactive
